- System: D2 receptor (Homo sapiens, UniProt P14416)
- Sequence (P14416 whole entry): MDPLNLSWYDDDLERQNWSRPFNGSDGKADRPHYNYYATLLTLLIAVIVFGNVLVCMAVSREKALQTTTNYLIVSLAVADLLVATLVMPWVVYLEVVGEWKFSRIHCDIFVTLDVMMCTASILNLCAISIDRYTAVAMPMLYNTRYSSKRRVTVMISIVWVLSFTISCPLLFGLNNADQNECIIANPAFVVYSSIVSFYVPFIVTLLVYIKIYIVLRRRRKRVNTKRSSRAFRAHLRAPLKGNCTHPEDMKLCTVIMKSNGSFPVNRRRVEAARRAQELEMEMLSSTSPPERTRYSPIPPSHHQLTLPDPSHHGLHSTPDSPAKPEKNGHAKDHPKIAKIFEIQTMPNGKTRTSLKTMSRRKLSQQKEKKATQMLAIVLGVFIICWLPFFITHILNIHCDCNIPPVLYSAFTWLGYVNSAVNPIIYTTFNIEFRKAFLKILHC
- Test description: [3H]Thymidine uptake assay for D2 intrinsic activity
- Type: cell-based
- Details: Table 2; test compound 1 μM; 1 μM Quinpirole = 100% intrinsic activity
Property: Emax at 1 µM; scope: individual compounds
Express your answer in %, writing the number without its unit.

Compound: CC1(C)CC(=O)Nc2nc(OCCCCN3CCN(c4cccc5cccnc45)CC3)ccc21 [Example C1′]
Emax at 1 µM / %: 38

Compound: O=C1CCc2ccc(OCCCCN3CCN(c4cccc5nsnc45)CC3)nc2N1 [Example A30′]
Emax at 1 µM / %: 41

Compound: O=C1CCc2cccc(N3CCN(CCCCOc4ccc5ccc(=O)[nH]c5n4)CC3)c2N1 [Example B37′]
Emax at 1 µM / %: 39

Compound: O=C1CCc2cnc(OCCCCN3CCN(c4cccc5c4OCCC5)CC3)cc2N1 [Example H1′]
Emax at 1 µM / %: 22

Compound: O=c1ccc2cnc(OCCCCN3CCN(c4cccc5c4OCCO5)CC3)cc2[nH]1 [Example H7′]
Emax at 1 µM / %: 17

Compound: CC1(C)Cc2cccc(N3CCN(CCCCOc4ccc5ccc(=O)[nH]c5n4)CC3)c2O1 [Example B9′]
Emax at 1 µM / %: 40

Compound: O=c1ccc2ccc(OCCCCN3CCN(c4cccc5cccnc45)CC3)nc2[nH]1 [Example B21′]
Emax at 1 µM / %: 18

Compound: O=c1ccc2ccc(OCCCCN3CCN(c4cccc5c4OC(F)(F)O5)CC3)nc2[nH]1 [Example B13′]
Emax at 1 µM / %: 33

Compound: O=C1CCc2ccc(OCCCCN3CCN(c4cccc5c4OC(F)(F)O5)CC3)nc2N1 [Example A19′]
Emax at 1 µM / %: 40

Compound: CC1(C)CC(=O)Nc2nc(OCCCCN3CCN(c4cccc5c4OCCO5)CC3)ccc21 [Example C2′]
Emax at 1 µM / %: 22

Measured on D2 receptor (Homo sapiens, UniProt P14416), Cc1nc(OCCCCN2CCN(c3cccc4cccnc34)CC2)nc2[nH]c(=O)ccc12 [Example G15′] has a documented Emax at 1 µM of 41

Measured on D2 receptor (Homo sapiens, UniProt P14416), O=C1CCc2ccc(OCCCCN3CCN(c4cccc5[nH]ccc45)CC3)nc2N1 [Example A25′] has a documented Emax at 1 µM of 36

Measured on D2 receptor (Homo sapiens, UniProt P14416), Cc1nc(OCCCCN2CCN(c3cccc4c3NC(=O)CC4)CC2)nc2[nH]c(=O)ccc12 [Example G14′] has a documented Emax at 1 µM of 44

Measured on D2 receptor (Homo sapiens, UniProt P14416), CN1C(=O)CCc2cccc(N3CCN(CCCCOc4ccc5c(n4)NC(=O)CC5)CC3)c21 [Example A49′] has a documented Emax at 1 µM of 38

Measured on D2 receptor (Homo sapiens, UniProt P14416), CC1(C)Cc2cccc(N3CCN(CCCCOc4ncc5ccc(=O)[nH]c5n4)CC3)c2O1 [Example G8′] has a documented Emax at 1 µM of 32

Measured on D2 receptor (Homo sapiens, UniProt P14416), CC1(C)CC(=O)Nc2nc(OCCCCN3CCN(c4cccc5ccoc45)CC3)ccc21 [Example C5′] has a documented Emax at 1 µM of 23

Measured on D2 receptor (Homo sapiens, UniProt P14416), O=c1ccc2ccc(OCCCCN3CCN(c4cccc5nonc45)CC3)nc2[nH]1 [Example B39′] has a documented Emax at 1 µM of 29

Measured on D2 receptor (Homo sapiens, UniProt P14416), CC1(C)CC(=O)Nc2nc(OCCCCN3CCN(c4cccc5ccc(=O)[nH]c45)CC3)ccc21 [Example C4′] has a documented Emax at 1 µM of 21

Measured on D2 receptor (Homo sapiens, UniProt P14416), COc1ccc2cccc(N3CCN(CCCCOc4ccc5c(n4)NC(=O)CC5)CC3)c2n1 [Example A41′] has a documented Emax at 1 µM of 32

Measured on D2 receptor (Homo sapiens, UniProt P14416), O=C1CCc2ccc(OCCCCN3CCN(c4cccc5c4OC4(CCCC4)CC5)CC3)nc2N1 [Example A8′] has a documented Emax at 1 µM of 30

Measured on D2 receptor (Homo sapiens, UniProt P14416), COc1ccc2cccc(N3CCN(CCCCOc4ccc5ccc(=O)[nH]c5n4)CC3)c2n1 [Example B30′] has a documented Emax at 1 µM of 42

Measured on D2 receptor (Homo sapiens, UniProt P14416), O=C1CCc2ccc(OCCCCN3CCN(c4cccc5c4CCO5)CC3)nc2N1 [Example A11′] has a documented Emax at 1 µM of 17

Measured on D2 receptor (Homo sapiens, UniProt P14416), CC1(C)COc2c(cccc2N2CCN(CCCCOc3ccc4ccc(=O)[nH]c4n3)CC2)C1=O [Example B16′] has a documented Emax at 1 µM of 4

Measured on D2 receptor (Homo sapiens, UniProt P14416), O=C1CCc2ccc(OCCCCN3CCN(c4cccc5cccnc45)CC3)nc2N1 [Example A34′] has a documented Emax at 1 µM of 38

Measured on D2 receptor (Homo sapiens, UniProt P14416), CC1(C)CCc2cccc(N3CCN(CCCCOc4ccc5c(n4)NC(=O)CC5)CC3)c2O1 [Example A6′] has a documented Emax at 1 µM of 42

Measured on D2 receptor (Homo sapiens, UniProt P14416), O=C1CCc2ccc(OCCCCN3CCN(c4cccc5c4OC4(C=C5)CCCC4)CC3)nc2N1 [Example A7′] has a documented Emax at 1 µM of 34

Measured on D2 receptor (Homo sapiens, UniProt P14416), O=C1NCc2ccc(OCCCCN3CCN(c4cccc5c4OCC5)CC3)nc2N1 [Example E3′] has a documented Emax at 1 µM of 8

Measured on D2 receptor (Homo sapiens, UniProt P14416), Cc1cc2c(N3CCN(CCCCOc4ccc5c(n4)NC(=O)CC5)CC3)cccc2[nH]1 [Example A27′] has a documented Emax at 1 µM of 21

The reported numbers originate from patent US7160888B2.
